# Assay remarks: Excitation/emission properties of dye NHS esters
# Assay type: physicochemical
# Measurement conditions: PBS
Marks after values point to notes of the source that are not given here.
Attribute measured: Ex

Q: Return the recorded Ex value; entry: COCCOCCOCCOCCN(CCCS(=O)(=O)[O-])c1ccc2c(C(C)(C)C)cc(/C=C/C=C3/N(CCCCCC(=O)ON4C(=O)CCC4=O)c4ccc(S(=O)(=O)[O-])cc4C3(C)CCCS(=O)(=O)[O-])[o+]c2c1.[Na+].[Na+] (centres unmarked) [V08-16072-NHS]
A: 679 (PBS)* nm

* * *

# Assay remarks: Excitation/emission properties of dye NHS esters
# Type: physicochemical
# Measurement conditions: EtOH
Attribute measured: Ex (nm)

# Compound, Ex (nm)
rows = [
    ("COCCOCCOCCOCCN(CCOCCOCCOCCOC)c1ccc2c(C(C)(C)C)cc(/C=C/C=C3/N(CCCS(=O)(=O)[O-])c4ccc(S(=O)(=O)[O-])cc4C3(C)CCCC(=O)O)[o+]c2c1.[Na+] (stereo not shown)", 690),
    ("COCCOCCOCCOCCN(CCCS(=O)(=O)[O-])c1ccc2c(C(C)(C)C)cc(/C=C/C=C3/N(CCOCCOCCOCCOCCC(=O)O)c4ccc(S(=O)(=O)[O-])cc4C3(C)CCCS(=O)(=O)[O-])[o+]c2c1.[Na+].[Na+] (stereo not shown)", 690),
]

* * *

# Assay remarks: Excitation/emission properties of dye NHS esters
# Type: physicochemical
# Measurement conditions: PBS
Attribute measured: Ex

# Compound, Result value
measured = [
    ("COCCOCCOCCOCCN(CCOCCOCCOCCOC)c1ccc2c(C(C)(C)C)cc(/C=C/C=C3/N(CCCS(=O)(=O)[O-])c4ccc(S(=O)(=O)[O-])cc4C3(C)CCCC(=O)O)[o+]c2c1.[Na+] (centres unmarked)", "about 675 nm"),
    ("COCCOCCOCCOCCN(CCCS(=O)(=O)[O-])c1ccc2c(C(C)(C)C)cc(/C=C/C=C3/N(CCCS(=O)(=O)[O-])c4ccc(S(=O)(=O)[O-])cc4C3(C)CCCC(=O)O)[o+]c2c1.[Na+].[Na+] (centres unmarked)", "about 675 nm"),
]

* * *

# Assay remarks: Excitation/emission properties of dye NHS esters
# Type: physicochemical
# Measurement conditions: EtOH
Attribute measured: Ex (nm)

# Compound, Result value
data = [
    ("COCCOCCOCCOCCN(CCCS(=O)(=O)[O-])c1ccc2c(C(C)(C)C)cc(/C=C/C=C3/N(CCCCCC(=O)O)c4ccc(S(=O)(=O)[O-])cc4C3(C)CCCS(=O)(=O)[O-])[o+]c2c1.[Na+].[Na+] (stereo not shown)", 690),
    ("COCCOCCOCCOCCN(CCCS(=O)(=O)[O-])c1ccc2c(C(C)(C)C)cc(/C=C/C=C3/N(CCCS(=O)(=O)[O-])c4ccc(S(=O)(=O)[O-])cc4C3(C)CCCC(=O)O)[o+]c2c1.[Na+].[Na+] (stereo not shown)", 690),
]

* * *

# Assay remarks: Excitation/emission properties of dye NHS esters
# Format: physicochemical
Attribute measured: Em (nm)

# Compound, Attribute measured, Unit of measurement, Result value
data = [
    ("COCCOCCOCCOCCN(CCCS(=O)(=O)[O-])c1ccc2c(C(C)(C)C)cc(/C=C/C=C3/N(CCOCCOCCOCCOCCC(=O)ON4C(=O)CCC4=O)c4ccc(S(=O)(=O)[O-])cc4C3(C)CCCS(=O)(=O)[O-])[o+]c2c1.[Na+].[Na+] (stereo not shown)", "Em", "nm", 712),
    ("COCCOCCOCCOCCN(CCCS(=O)(=O)[O-])c1ccc2c(C(C)(C)C)cc(/C=C/C=C3/N(CCCS(=O)(=O)[O-])c4ccc(S(=O)(=O)[O-])cc4C3(C)CCCC(=O)ON3C(=O)CCC3=O)[o+]c2c1.[Na+].[Na+] (stereo not shown)", "Em", "nm", 712),
    ("COCCOCCOCCOCCN(CCOCCOCCOCCOC)c1ccc2c(C(C)(C)C)cc(/C=C/C=C3/N(CCCS(=O)(=O)[O-])c4ccc(S(=O)(=O)[O-])cc4C3(C)CCCC(=O)ON3C(=O)CCC3=O)[o+]c2c1.[Na+] (stereo not shown)", "Em", "nm", 708),
    ("COCCOCCOCCOCCN(CCCS(=O)(=O)[O-])c1ccc2c(C(C)(C)C)cc(/C=C/C=C3/N(CCCCCC(=O)ON4C(=O)CCC4=O)c4ccc(S(=O)(=O)[O-])cc4C3(C)CCCS(=O)(=O)[O-])[o+]c2c1.[Na+].[Na+] (stereo not shown)", "Em", "nm", 712),
]

Taken from patent US10174045B2.
